Molecular target: T1, human CD39 (full length, on cells) (human, UniProt P49961 1-510)
T1 construct: Recombinant on CHOK1-hCD39 cells or natural on SK-MEL-28, SK-MEL-5 and MOLP-8 cells; the cell line is named under assay; also called hCD39; ENTPD1
T1 sequence: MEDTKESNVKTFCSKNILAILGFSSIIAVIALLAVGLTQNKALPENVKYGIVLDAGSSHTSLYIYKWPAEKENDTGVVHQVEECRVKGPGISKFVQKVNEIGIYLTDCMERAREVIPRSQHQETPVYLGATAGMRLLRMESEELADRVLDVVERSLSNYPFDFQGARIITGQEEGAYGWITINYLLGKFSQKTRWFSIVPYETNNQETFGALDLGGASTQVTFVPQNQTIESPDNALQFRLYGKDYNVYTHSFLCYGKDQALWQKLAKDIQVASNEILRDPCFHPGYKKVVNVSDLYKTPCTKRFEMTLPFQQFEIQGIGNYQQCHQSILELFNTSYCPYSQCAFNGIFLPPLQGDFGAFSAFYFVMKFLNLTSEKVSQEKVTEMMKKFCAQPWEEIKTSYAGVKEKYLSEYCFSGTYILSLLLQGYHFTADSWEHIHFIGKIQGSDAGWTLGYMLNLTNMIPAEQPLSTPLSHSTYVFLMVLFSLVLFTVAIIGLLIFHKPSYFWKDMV
Experiment: FACS, MOLP-8 cells
readout name: EC50 (nM)
Unit nM implied. Number only.

Q) Which EC50 value belongs to hu23.H6L7 (antibody, V domains shown, humanized c23) VH: EVQLVQSGAEVKKPGASVKLSCKASGYNLKDTFLHWVRQAPGQGLEWIGRIDPANGNIKYDPKFQGRATITADTSANTAYMELISLRSEDTAVYYCANSPYYYGSGYRIFDVWGQGTTVTVSS VL: QIVLTQSPATLSASPGERVTITCSAFSSVNYMHWYQQKPGQAPKLLIYTTSNLASGVPTRFSGSGSGTSYTLTISSMEPEDFAVYYCQQRSTYPFTFGQGTKLEIK ?
A) 0.122

Q) Can you look up the measured EC50 of hu23.H7L7 (antibody, V domains shown, humanized c23) VH: EVQLVQSGAEVKKPGASVKLSCKASGYNLKDTFLHWVKQAPGQGLEWIGRIDPANGNIKYDPKFQGKATLTADTSANTAYLELISLRSEDTAVYYCANSPYYYGSGYRIFDVWGQGTTVTVSS VL: QIVLTQSPATLSASPGERVTITCSAFSSVNYMHWYQQKPGQAPKLLIYTTSNLASGVPTRFSGSGSGTSYTLTISSMEPEDFAVYYCQQRSTYPFTFGQGTKLEIK for me?
A) 0.25

Q) Looking for the measured EC50 of hu23.H4L3 (antibody, V domains shown, humanized c23) VH: QVQLVQSGAEVKKPGASVKLSCKASGYNLKDTFLHWVKQAPGQGLEWIGRIDPANGNIKYDPKFQGRATLTADTSASTAYLELSSLRSEDTAVYYCANSPYYYGSGYRIFDVWGQGTTVTVSS VL: EIVLTQSPATLSASPGERATLSCSAFSSVNYMHWYQQKPGQAPRLLIYTTSNLASGIPARFSGSGSGTDYTLTISSMEPEDFAVYYCQQRSTYPFTFGQGTKLEIK , can you help?
A) 1.87

Cited source: patent US20210388105A1
